Assay Protocol: Pharmacokinetic study of DMAPE in rats
Assay type: in vivo, Sprague–Dawley rats
Test Conditions: male, Sprague-Dawley; rat plasma, DMAPE 50 mg/kg intravenous; read-out: MRT 0-∞
Listed here are compounds together with their documented MRT inf.
Result Type: MRT inf (h)

[[record]]
compound = "C=C1C(=O)OC[C@H]1C(c1cc(OC)c2c(c1)OCO2)c1cc(OC)c2c(c1)OCO2 [PepE, Peperomin E]"
experimental_result = 4.64

[[record]]
compound = "COc1cc(C(c2cc(OC)c3c(c2)OCO3)[C@@H]2COC(=O)[C@H]2CN(C)CCO)cc2c1OCO2 [DMAPE]"
experimental_result = 2.73


----------
Tested On: UniProt:P48637
Sequence (P48637 1-474): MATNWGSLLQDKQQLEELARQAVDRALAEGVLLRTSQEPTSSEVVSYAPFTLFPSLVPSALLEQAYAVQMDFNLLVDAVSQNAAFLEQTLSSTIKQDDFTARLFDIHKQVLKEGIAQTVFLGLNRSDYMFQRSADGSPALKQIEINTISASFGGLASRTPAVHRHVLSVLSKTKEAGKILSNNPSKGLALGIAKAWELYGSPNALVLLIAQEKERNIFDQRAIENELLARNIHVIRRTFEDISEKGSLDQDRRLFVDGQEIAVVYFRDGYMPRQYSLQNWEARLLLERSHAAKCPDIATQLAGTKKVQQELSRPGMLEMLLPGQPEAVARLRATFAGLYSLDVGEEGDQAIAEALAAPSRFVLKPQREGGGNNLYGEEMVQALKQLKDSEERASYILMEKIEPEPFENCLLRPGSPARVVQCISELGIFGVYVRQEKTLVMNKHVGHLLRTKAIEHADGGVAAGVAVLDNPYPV
Result Type: Kd (µM)

[[record]]
compound_smiles = "C=C1C(=O)OC[C@H]1C(c1cc(OC)c2c(c1)OCO2)c1cc(OC)c2c(c1)OCO2"
experimental_result = 272


----------
Assay Protocol: Pharmacokinetic study of DMAPE in rats
Type: in vivo, Sprague–Dawley rats
Test Conditions: male, Sprague-Dawley, rat, plasma, po, 50 mg/kg, rat plasma, DMAPE 50 mg/kg intragastric
The compounds listed here are annotated with their Tmax.
Result Type: Tmax

[[record]]
compound_smiles = "COc1cc(C(c2cc(OC)c3c(c2)OCO3)[C@@H]2COC(=O)[C@H]2CN(C)CCO)cc2c1OCO2"
experimental_result = "≤ 51 min"

[[record]]
compound_smiles = "C=C1C(=O)OC[C@H]1C(c1cc(OC)c2c(c1)OCO2)c1cc(OC)c2c(c1)OCO2"
experimental_result = "≤ 51 min"


----------
Tested On: recombinant human TrxR1 (Homo sapiens, UniProt Q16881)
Sequence (Q16881 151-649): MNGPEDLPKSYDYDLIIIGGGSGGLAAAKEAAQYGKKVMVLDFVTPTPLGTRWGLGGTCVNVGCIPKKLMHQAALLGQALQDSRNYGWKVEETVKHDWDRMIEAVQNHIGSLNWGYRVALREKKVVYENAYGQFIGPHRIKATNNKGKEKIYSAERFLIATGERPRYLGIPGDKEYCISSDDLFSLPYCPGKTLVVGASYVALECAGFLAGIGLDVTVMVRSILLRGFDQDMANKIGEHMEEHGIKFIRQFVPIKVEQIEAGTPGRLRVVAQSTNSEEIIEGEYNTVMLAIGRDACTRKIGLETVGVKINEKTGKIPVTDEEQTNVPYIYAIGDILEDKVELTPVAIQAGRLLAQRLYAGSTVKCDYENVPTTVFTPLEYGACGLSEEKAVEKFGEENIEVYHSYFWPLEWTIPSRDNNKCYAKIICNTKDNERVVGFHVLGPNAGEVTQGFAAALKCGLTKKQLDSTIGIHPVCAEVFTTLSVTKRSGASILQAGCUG
Assay Protocol: In vitro TrxR1 activity assay (DTNB reduction)
Test Conditions: DTNB reduction assay, NADPH-reduced TrxR1 0.1 μM, 1 h at 37 °C
Protocol: The in vitro TrxR1 activity assay was performed using the DTNB reduction assay. […] The absorbance was monitored at 412 nm using the SpectraMax i3x microplate reader (Molecular Devices). The linear increase of absorbance during the initial 3 min was recorded for calculating the relative enzyme activity. The same amount of DMSO was added to the control experiments and the activity is expressed as the percentage of the control.
Result Type: IC50

[[record]]
compound_smiles = "C=C1C(=O)OC[C@H]1C(c1cc(OC)c2c(c1)OCO2)c1cc(OC)c2c(c1)OCO2"
experimental_result = "0.94 µM"

